meta.source: ChEMBL document CHEMBL1132940

Molecular target: GABA-A receptor; alpha-3/beta-3/gamma-2 (Homo sapiens, UniProt P18507+P28472+P34903)
Sequence (P18507 whole entry): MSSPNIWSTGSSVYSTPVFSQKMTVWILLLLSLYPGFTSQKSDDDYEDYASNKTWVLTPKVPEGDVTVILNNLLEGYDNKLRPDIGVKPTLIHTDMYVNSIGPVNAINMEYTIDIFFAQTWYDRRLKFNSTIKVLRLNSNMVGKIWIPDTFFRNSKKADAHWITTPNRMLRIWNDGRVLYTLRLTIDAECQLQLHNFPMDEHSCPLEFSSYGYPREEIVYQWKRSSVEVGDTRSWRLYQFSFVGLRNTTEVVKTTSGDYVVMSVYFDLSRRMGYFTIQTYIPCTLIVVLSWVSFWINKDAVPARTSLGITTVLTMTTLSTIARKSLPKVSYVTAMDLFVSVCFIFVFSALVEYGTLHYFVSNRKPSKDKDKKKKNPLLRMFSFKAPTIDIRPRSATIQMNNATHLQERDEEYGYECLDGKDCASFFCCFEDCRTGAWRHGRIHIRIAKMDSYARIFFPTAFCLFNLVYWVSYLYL
Sequence (P28472 whole entry): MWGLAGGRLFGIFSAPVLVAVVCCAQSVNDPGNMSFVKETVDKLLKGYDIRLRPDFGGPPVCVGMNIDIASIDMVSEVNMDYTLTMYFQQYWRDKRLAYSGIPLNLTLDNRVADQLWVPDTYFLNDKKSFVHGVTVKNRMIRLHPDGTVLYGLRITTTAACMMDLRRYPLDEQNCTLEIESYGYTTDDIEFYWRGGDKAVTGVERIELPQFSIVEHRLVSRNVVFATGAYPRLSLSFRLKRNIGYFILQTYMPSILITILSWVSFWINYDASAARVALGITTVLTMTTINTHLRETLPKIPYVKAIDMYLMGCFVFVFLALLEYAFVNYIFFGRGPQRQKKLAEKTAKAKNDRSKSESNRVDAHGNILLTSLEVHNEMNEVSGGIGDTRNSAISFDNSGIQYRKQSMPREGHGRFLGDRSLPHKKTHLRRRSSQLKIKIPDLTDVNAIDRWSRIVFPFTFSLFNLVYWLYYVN
Sequence (P34903 whole entry): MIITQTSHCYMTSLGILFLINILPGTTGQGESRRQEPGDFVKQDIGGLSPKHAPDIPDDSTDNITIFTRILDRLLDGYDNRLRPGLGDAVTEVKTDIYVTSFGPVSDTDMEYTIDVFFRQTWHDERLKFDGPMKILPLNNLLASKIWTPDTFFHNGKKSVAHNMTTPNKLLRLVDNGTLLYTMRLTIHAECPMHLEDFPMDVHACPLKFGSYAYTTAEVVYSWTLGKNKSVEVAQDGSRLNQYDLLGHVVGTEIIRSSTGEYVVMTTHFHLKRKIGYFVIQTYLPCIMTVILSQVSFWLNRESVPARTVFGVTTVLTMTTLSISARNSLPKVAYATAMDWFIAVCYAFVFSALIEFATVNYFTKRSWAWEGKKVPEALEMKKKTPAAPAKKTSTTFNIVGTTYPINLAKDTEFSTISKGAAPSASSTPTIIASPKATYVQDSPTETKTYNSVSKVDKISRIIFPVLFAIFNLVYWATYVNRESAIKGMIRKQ
Assay: Binding affinity for human recombinant gamma-aminobutyric-acid (GABA) A receptor alpha-3-beta-3-gamma-2
pKi: −log10 of the molar value.
Could you label it yes if measured pKi is 8 or higher, and no otherwise?

The examples below pair each entry with its known result.
{"columns": ["structure string", "system name", "label value"],
 "data": [
  ["CCCC(=O)c1cc2c(cn1)[nH]c1ccccc12", "GABA-A receptor; alpha-3/beta-3/gamma-2 (Homo sapiens, UniProt P18507+P28472+P34903)", "no"],
  ["CCCOc1ccc2[nH]c3cnc(C(=O)NN)c(COC)c3c2c1", "GABA-A receptor; alpha-3/beta-3/gamma-2 (Homo sapiens, UniProt P18507+P28472+P34903)", "no"],
  ["CN1C(=O)CN=C(C2CCC2)c2cc(F)ccc21", "GABA-A receptor; alpha-3/beta-3/gamma-2 (Homo sapiens, UniProt P18507+P28472+P34903)", "no"],
  ["c1ccc2c(c1)[nH]c1cnc3c(nc4ccccn43)c12", "GABA-A receptor; alpha-3/beta-3/gamma-2 (Homo sapiens, UniProt P18507+P28472+P34903)", "no"],
  ["c1ccc2c(c1)[nH]c1cnc3c4ccncc4[nH]c3c12", "GABA-A receptor; alpha-3/beta-3/gamma-2 (Homo sapiens, UniProt P18507+P28472+P34903)", "no"],
  ["CCOC(=O)c1[nH]cc2nc3ccc(OCc4ccc5ccccc5c4)cc3c-2c1CC", "GABA-A receptor; alpha-3/beta-3/gamma-2 (Homo sapiens, UniProt P18507+P28472+P34903)", "no"]
]}

Could you verify whether the entry CC(C)(C)OC(=O)c1ncn2c1[C@@H]1CCCN1C(=O)c1c(Br)cccc1-2 shows pKi of no less than 8?
yes

Could you verify whether the entry CN1C(=O)CN=C(c2ccsc2)c2cc(Cl)ccc21 shows pKi of no less than 8?
no

---

Target: GABA-A receptor; alpha-5/beta-3/gamma-2 (Homo sapiens, UniProt P18507+P28472+P31644)
Sequence (P18507 whole entry): as the sequence (P18507 whole entry) above
Sequence (P28472 whole entry): as the sequence (P28472 whole entry) above
Sequence (P31644 whole entry): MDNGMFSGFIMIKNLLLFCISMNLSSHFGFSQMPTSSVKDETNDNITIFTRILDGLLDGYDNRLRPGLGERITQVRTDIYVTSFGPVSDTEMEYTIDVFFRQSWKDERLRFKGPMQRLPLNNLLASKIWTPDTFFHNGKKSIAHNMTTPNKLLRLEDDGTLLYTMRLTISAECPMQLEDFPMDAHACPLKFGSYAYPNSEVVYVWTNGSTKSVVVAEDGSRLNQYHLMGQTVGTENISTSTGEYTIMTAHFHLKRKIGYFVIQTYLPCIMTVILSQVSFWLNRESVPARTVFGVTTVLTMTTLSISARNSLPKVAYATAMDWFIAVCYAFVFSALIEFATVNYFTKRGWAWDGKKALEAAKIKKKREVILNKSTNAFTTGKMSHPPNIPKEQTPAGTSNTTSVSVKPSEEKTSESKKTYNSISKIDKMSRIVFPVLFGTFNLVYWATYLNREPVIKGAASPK
Assay: Binding affinity for human recombinant gamma-aminobutyric-acid (GABA) A receptor alpha-5-beta-3-gamma-2
pKi: −log10 of the molar value.
Could you label it t if measured pKi is 8 or higher, and f otherwise?

{"columns": ["structure string", "label value"],
 "data": [
  ["COC(=O)c1cc2c3cc(NCc4ccc5ccccc5c4)ccc3nc-2c[nH]1", "f"],
  ["Clc1ccc2c(c1)[nH]c1c2ncc2[nH]c3ccccc3c21", "f"],
  ["CCOC(=O)c1[nH]cc2nc3ccc(O)cc3c-2c1COC", "f"]
]}

Could you verify whether the entry CCOC(=O)c1ncn2c1[C@@H]1CCCN1C(=O)c1ccccc1-2 shows pKi of no less than 8?
t

Could you verify whether the entry O=c1c2cnc3ccccc3c2[nH]n1-c1ccc(Br)cc1 shows pKi of no less than 8?
t

Could you verify whether the entry CCOC(=O)c1[nH]cc2nc3ccc(OCc4ccc5ccccc5c4)cc3c-2c1COC shows pKi of no less than 8?
f

Could you verify whether the entry COC(=O)c1cc2c(cn1)[nH]c1ccc(NCc3ccccc3)cc12 shows pKi of no less than 8?
f

Could you verify whether the entry COc1ccc(-n2nc3c4cc(Cl)ccc4[nH]cc-3c2=O)cc1 shows pKi of no less than 8?
t

Could you verify whether the entry O=c1c2cnc3ccc(Cl)cc3c2[nH]n1-c1ccccc1 shows pKi of no less than 8?
t
